experimental target: T1, hCD138 peptide AGEGPKEGEAVVLP (human)
T1 construct: Portion of the linear CD138 peptide used for immunization; also the peptide in the crystal structure; also called syndecan-1 peptide
T1 peptide: AGEGPKEGEAVVLP
assay procedure: ELISA, plate-coated hCD138 peptide
Experimental: A CD138 binding ELISA was performed with 9 representative humanized antibodies to determine binding to portion of the linear CD138 peptide used for immunization (FIG. 7). […] Coated plates were incubated with various dilutions of each of the 9 representative antibodies overnight and binding was detected with a goat anti-human IgG (H+L)-HRP. EC50s were determined using four parameter fit curves (Table 21). […]
assay readout: EC50 (pM)

>  <binder>
F6 f1kf-rep (antibody, V domains shown, Humanized F12P16F6 expressed as whole antibody with human constant regions (kappa light chain)) VH: QVQLQQSGAEVVKPGASVKLSCKASGYTFTSYYLYWVKKAPGQGLDWIGEIYPRSGGTNINEKFLSRVTLTADTSTSTAYMDLSSLTSEDTAVYYCTRSLLYWGQGTTLTVSS VL: DVVMTQSPLSLSVTLGQPASISCKSSQSLLASDGKTYLNWLQQRPGQSPRRLIYLVSKLDSGVPNRFSGSGSGTDFTLQISRVEAEDVGLYYCWQGAHFPFTFGSGTKLEIKR

>  <observed measurement>
413

$$$$
